# protocol-summary: folding enthalpy; higher = less favourable; fluorescence melt of hairpins on a sequencing array, two-state fit
# condition-label: sodium 0.088 M
The following sequences are shown together with reported folding enthalpy values.
Quick note: give the figure in kcal/mol, leave out the unit.

Examples from the recorded data:
GTTCGGCCGAAAGGCAAC (((..(((....))))))
-6.89
AAGCAGAAATGCTT (((((....)))))
-16.8
GATGCAGGAAACTACATC ((((.((....)).))))
-30.7
GTACTACGAAAGTAATAC (((.(((....))).)))
-15.2
GGTTGGACGAAAGTCACC (((..(((....))))))
-12.2
GCCTGGCGAAAGCAAAGC ((.(.((....)).).))
-9.2
GAAAACGAAAGTTTCTTC ((((((....)))..)))
-35
GTGATCGAAAGATATCAC ((((((....)))..)))
-18
GATCATGCTGATGATC ((((((....))))))
-38.5
GTGCTTACGAAAGTACAC (((..(((....))))))
-9.43

Task: Request the reported folding enthalpy associated with CCTGAGAAATCAGG (((((....)))))
Output: -19.4

Task: Also GGCCTTGGAAACAAGACC ((.((((....)))).)) ?
Output: -29.1
